# Tested system: PIM1 (Homo sapiens (Human), UniProt P11309)
# Sequence (P11309 whole entry): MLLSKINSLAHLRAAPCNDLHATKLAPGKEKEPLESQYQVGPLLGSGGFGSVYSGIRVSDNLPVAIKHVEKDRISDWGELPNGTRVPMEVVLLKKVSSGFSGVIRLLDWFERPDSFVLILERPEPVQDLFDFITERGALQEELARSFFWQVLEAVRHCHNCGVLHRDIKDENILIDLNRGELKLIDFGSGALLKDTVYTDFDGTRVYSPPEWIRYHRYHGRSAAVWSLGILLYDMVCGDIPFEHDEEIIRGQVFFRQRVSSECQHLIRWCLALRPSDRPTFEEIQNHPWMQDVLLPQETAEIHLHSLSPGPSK
# Assay summary: biochemical
# Format: biochemical
# Run conditions: 10 μM ATP, 90 min, room temperature; read-out: PIM1 LC3K (KI)
pKi: −log10 of the molar value.
Readout name: pKi

INPUT: Need pKi, item `c1cc(N2CCNCC2)nc(-n2ncc3cnc(-c4cncc(N5CCC5)n4)cc32)c1`
OUTPUT: 10.70

(1) COc1ccc(-n2ncc3cnc(-c4cnn(CC(F)(F)F)c4)cc32)nc1N1CCNC[C@H](O)C1
(2) CCc1cncc(-c2cc3c(cn2)cnn3-c2cccc(N3CCNCC3)n2)n1
INPUT: Would you mind telling me which has the lower recorded pKi between 1 and 2 ? Give the label of your selection.
OUTPUT: 1
(1: 9.51, 2: 10.24)

(I) Cn1cc(-c2cc3c(cn2)cnn3-c2cccc(N3CC4(CCCCN4)C3)n2)cn1
(II) Cc1cncc(-c2cc3c(cn2)cnn3-c2cccc(N3C[C@@H](N)CCC3=O)n2)n1
INPUT: Would you mind telling me which has the lower recorded pKi between I and II ? Give the label of your selection.
OUTPUT: II
(II: 7.25, I: 8.96)

(1) c1cc(N2CCNCC2)nc(-n2ncc3cnc(-c4cncs4)cc32)c1
(2) Cc1nc(-c2cc3c(cn2)cnn3-c2cccc(N3CCC[C@H](N)C3)n2)cnc1N
INPUT: Would you mind telling me which has the lower recorded pKi between 1 and 2 ? Give the label of your selection.
OUTPUT: 1

(A) CCn1cc(-c2cc3c(cn2)cnn3-c2cccc(N3CCNC(C)(C)C3)n2)cn1
(B) COc1ncc(-n2ncc3cnc(-c4cncc(C)n4)cc32)nc1N1CCC[C@H](N)C1
(C) Cc1cncc(-c2cc3c(cn2)cnn3-c2cccc(C3CNCCC3O)n2)n1 (stereo not shown)
(D) Cc1cncc(-c2cc3c(cn2)cnn3-c2cnc(O)c(N3CCC[C@H](N)C3)n2)n1
INPUT: Arrange by pKi, high to low. Answer by naming the labels in the order asked.
OUTPUT: B, A, C, D
